B1: TSN (parent)
chain: FVELQGFLAAEQDIREEIRKVVQS

# Variants of: B1
# test: protein stability index of a GFP-peptide fusion (GPS, HEK-293T) (PSI 1-6); higher = more stable;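 also: lentivirally expressed fusions sorted by FACS into six bins by GFP to DsRed ratio, PSI derived from sequencing read proportions per bin multiplied by bin number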
# condition.label: c terminus: a fixed tail appended
endpoint.label: protein stability index
Answer with a number only.

Example entries begin here.
| mut | protein stability index |
| --- | --- |
| R15N | 1.03 |
| F1G | 3.24 |
| Q5K | 2.12 |

Now let's try a different one.
(Q) # lookup: protein stability index of K20T
(A) 1.89
